Test system: YAP/TAZ
protocol_text: YAP/TAZ nuclear localization in IPF patient-derived lung fibroblasts treated with dopaminergic agonists
Assay type: cell-based, human
experimental_conditions: IPF-4 patient fibroblasts; 10 μM, 2 hours
Counter-ions that a name gives are not always drawn.
measurement_label: Nuclear localization (% of total cells)

[
  {
    "compound": "Br.C=CCN1CCc2c(cc(O)c(O)c2Br)[C@@H](c2ccccc2)C1 [R(+)-6-BROMO-APB•HBr, R(+)-6-BROMO-APB]",
    "assay_value": "25.65 % of total cells"
  },
  {
    "compound": "CCCN(CCC)CCc1cccc2c1CC(=O)N2 [Ropinirole HCl, Ropinirole]",
    "assay_value": "65.7 % of total cells"
  },
  {
    "compound": "Cc1cccc(C(=O)NCN2CCN(c3ccccc3C#N)CC2)c1.O=C(O)/C=C\\C(=O)O [PD 168077 maleate, PD 168077]",
    "assay_value": "68.4 % of total cells"
  },
  {
    "compound": "CN1C[C@@H](NS(=O)(=O)N(C)C)C[C@@H]2c3cccc4c3c(cn4C)C[C@H]21 [Mesulergine•HCl, Mesulergine]",
    "assay_value": "45.14 % of total cells"
  }
]

Record summary for CCCN[C@H]1CCc2nc(N)sc2C1 [Pramipexole Dihydrochloride Monohydrate, Pramipexole] : reported Nuclear localization (% of total cells) = 58.97 % of total cells

Record summary for Br.CCCN1CCc2cc(O)cc3c2[C@H]1Cc1ccc(O)c(O)c1-3 : reported Nuclear localization (% of total cells) = 25.36 % of total cells

Record summary for CN1Cc2ccccc2[C@@H]2c3cccc4[nH]cc(c34)C[C@H]21 [CY 208-243] : reported Nuclear localization (% of total cells) = 19.82 % of total cells

Record summary for Oc1cc2c(cc1O)[C@H]1c3ccccc3CN[C@@H]1CC2 (racemic) [Dihydrexidine] : reported Nuclear localization (% of total cells) = 21.08 % of total cells

Record summary for COc1ccc2c(c1O)-c1cc(O)cc3c1[C@@H](C2)N(C)CC3.Cl : reported Nuclear localization (% of total cells) = 80.45 % of total cells

Record summary for Oc1cc2c(cc1O)[C@@H](c1ccccc1)CNCC2 [SKF 38393•HBr, SKF 38393] : reported Nuclear localization (% of total cells) = 35.79 % of total cells

Record summary for CC(C)C[C@H]1C(=O)N2CCC[C@H]2[C@]2(O)O[C@](NC(=O)[C@@H]3C=C4c5cccc6[nH]c(Br)c(c56)C[C@H]4N(C)C3)(C(C)C)C(=O)N12 [Bromocriptine mesylate, Bromocriptine] : reported Nuclear localization (% of total cells) = 64.6 % of total cells

Record summary for C=CCN1CCc2nc(N)sc2CC1.Cl.Cl [B-HT 920•2HCl, B-HT 920] : reported Nuclear localization (% of total cells) = 76.24 % of total cells

Record summary for CCCN1CCC[C@@H]2Cc3nc(N)ncc3C[C@H]21.Cl.Cl [LY-163,502•2HCl, LY-163,502] : reported Nuclear localization (% of total cells) = 66.49 % of total cells

Record summary for CN1CCc2cccc3c2[C@H]1Cc1ccc(O)c(O)c1-3 [(R)-(−)-Apomorphine•HCl, (R)-(−)-Apomorphine] : reported Nuclear localization (% of total cells) = 17.86 % of total cells

Record summary for CCCN(CCc1ccccc1)C1CCc2c(O)cccc2C1.Cl (racemic) : reported Nuclear localization (% of total cells) = 56.552 % of total cells

Record summary for Br.C=CCN1CCc2c(cc(O)c(O)c2Cl)C(c2ccccc2)C1 (racemic) [(±)-SKF-82958•HBr, (±)-SKF-82958] : reported Nuclear localization (% of total cells) = 12.29 % of total cells
